Just for reference, paper doi:10.1101/2021.07.02.450968v1 is where these values come from.

tgt: FABP2 (intestine, I-FABP) (Homo sapiens)
Sequence (P12104 2-132): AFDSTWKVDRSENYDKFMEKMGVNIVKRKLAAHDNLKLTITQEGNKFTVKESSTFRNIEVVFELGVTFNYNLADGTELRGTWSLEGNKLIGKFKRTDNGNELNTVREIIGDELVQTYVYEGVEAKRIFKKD
readout label: Ki

Reference set, count: 3
C[C@]12CCC(=O)C=C1CC[C@@H]1[C@@H]2C(=O)C[C@@]2(C)[C@H]1CC[C@]2(O)C(=O)CO [Cortisone]	16.6 µM
C[C@H]1C[C@@H]2[C@H]([C@@H](O)C[C@@]3(C)[C@H]2CC[C@]3(O)C(=O)CO)[C@@]2(C)C=CC(=O)C=C12 [Methylprednisolone]	3.39 µM
C[C@]12C=CC(=O)C=C1CC[C@@H]1[C@@H]2[C@@H](O)C[C@@]2(C)[C@H]1CC[C@]2(O)C(=O)CO [Prednisolone]	11 µM

From here, focus on the item given below.
Prompt: Suppose we examine the compound C[C@H]1C[C@H]2[C@@H]3CCC4=CC(=O)C=C[C@]4(C)[C@@]3(F)[C@@H](O)C[C@]2(C)[C@@]1(O)C(=O)CO [β-methasone] ; what Ki value has been reported?
Completion: 72.4 µM
